- System: UACC-62 melanoma
- assay: NCI tumour cell line growth inhibition, 48 h
observed_property: TGI

# annotated cases, reported TGI shown
# compound, test_system, result
rows = [
    ("COc1ccc2c(c1)C(=O)c1c-2n(CCCN2CCOCC2)c(=O)c2cc([N+](=O)[O-])ccc12", "UACC-62 melanoma", "0.0291 µM"),
    ("COc1ccc(/C=C2\\CN(C)Cc3c2[nH]c(=O)c(C#N)c3-c2ccc(OC)cc2)cc1", "UACC-62 melanoma", "> 100 µM"),
    ("O=C(/C=C\\c1ccc2ccccc2n1)c1cc(Cl)ccc1O", "UACC-62 melanoma", "21 µM"),
    ("N/C(=N\\c1nc2ccccc2s1)NC(=O)Nc1cccc2ccccc12", "UACC-62 melanoma", "> 95 µM"),
    ("CN(C)S(=O)(=O)c1ccc(Nc2ccc(O)c3c2C(=O)c2c([N+](=O)[O-])ccc(O)c2C3=O)cc1", "UACC-62 melanoma", "> 100 µM"),
]

Provide measured TGI value, entry: CC1CC2(CCC1OCc1ccccc1)OCCO2 (stereo not given)
> 100 µM

Please report TGI for the following compound: "O=C(c1ccccc1)N1C(=S)N(c2ccc([N+](=O)[O-])cc2)C(=Nc2ccccc2)C1=Nc1ccccc1"
> 100 µM

Respond only with TGI recorded for CCOC12SC(=Nc3ccc(C)cc3)NN1C(=S)N(C)N=C2C (stereo not given)
> 100 µM

State its TGI for this compound: COc1ccc(C2(C3c4cc(OC)c(OC)cc4CCN3C)SCCCS2)cc1O (stereo not given)
> 100 µM

Please give measured TGI of the following entry: "CCC[CH2][Sn]1([CH2]CCC)[O]C(=O)CN=Cc2ccccc2[O]1"
0.46 µM
